What T1/2 was measured for each of the following?
# study.target: T1, Human GDF8 homodimer (mature human Growth and Differentiation Factor-8) (human, UniProt O14793 267-375)
# T1 construct: also called hGDF8; myostatin
# T1 sequence: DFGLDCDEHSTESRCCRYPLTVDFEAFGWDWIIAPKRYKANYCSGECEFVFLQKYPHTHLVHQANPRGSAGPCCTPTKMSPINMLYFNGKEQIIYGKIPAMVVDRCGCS
# protocol.summary: SPR, antibody captured, 25 nM antigen
# Protocol: Equilibrium dissociation constants (KD values) for antigen binding to selected antibodies were determined by surface kinetics using a real-time biosensor surface plasmon resonance assay (BIACORE™ 2000). […] Human GDF8 homodimer, hGDF11 homodimer, or hGDF5 homodimer at 25 nM was injected over the captured antibody surfaces, and antigen-antibody binding and dissociation were monitored in real time at room temperature. […]
Give bare numbers, in h.

| binder | value.unit | T1/2 |
| --- | --- | --- |
| 22-E6 (antibody, V domains shown) VH: QVQLVQSGPGLVKPSETLSLTCTVSGGSIITYSYYWGWIRQPPGKGLEWIGTIHHSGSTYYNPSLKSRVTISVDTSKNQFSLTLSSVTAADTAVYYCARDYYDSSGYYYNWFDPWGQGTMVTVSS VL: AIQMTQSPSSLSASVGDRVTITCRASQGIRNDLGWYQQKPGKAPKRLIYAASSLQSGVPSRFSGSGSGTEFTLTISSLQPEDFATYYCLQHNSSPWTFGQGTKVEIKR | h | 2.47 |

The record that follows has no T1/2 shown yet.
20B12 (antibody, V domains shown) VH: EVQLLESGGGLVQPGGSLRLSCAGSGITFSSYAMSWVRQAPGKGLEWVSAISGNGGTTNYADSVKGRFTISRDNSKNTLYLQMNSLRAEDTAVYYCAKERILTSSWTRYGIMDVWGQGTTVTVSS VL: EIVMTQSPATLSMSPGERATLSCRASQSVSSNLAWYQQKPGQAPRLLIYGASTRATGIPARFSGSGSGTEFTLTISSLQSEDFAVYYCQQYNNWPLTFGGGTKLEIK yielded T1/2 of 0.65
